Value source: patent US20260295137A1

Test: In vitro hemolysis assay
Type: cell-based, bovine
Conditions: bovine, blood, MCFA 1-3 mmol/L (exact concentration not stated), 37° C., median (IQR), control 1.5%
Experimental: One milliliter of fresh bovine blood was incubated for 4 h at 37° C. with 50 μL of a solution of medium chain fatty acids (final concentration: 0.25, 0.5, 1, 2 or 3 mmol/L) or PBS as control. […] Hemoglobin concentration was determined spectrophotometrically as described by Fairbanks et al (Clin Chem. 1992 January; 38 (1): 132-40). Briefly, plasma samples were diluted to 1:10 in Na2CO3 9.4 mmol/L and absorbance was read at 415 nm, 450 nm and 700 nm on a microplate reader (Tecan, Lyon, France). […]
PROPERTY: hemolysis at 4 h (%)
One number for each entry, in %.

{"COMPOUND": "CCCCCC(=O)O [Hexanoate, hexanoic acid]", "hemolysis at 4 h (%)": 3.6}

// query Quick one: hemolysis at 4 h for CCCCCCCC(=O)O [Octanoate, octanoic acid] ?
// result 2.3
